System: anaerobic Gram positive cocci
assay text: CLSI agar dilution MIC, anaerobic clinical isolates
Type: cell-based
condition: Gram + cocci (16 isolates), 48 h
Catalogue of MIC50 values
Numbers only; they are read as µg/mL.

O=C(Nc1ncc([N+](=O)[O-])s1)c1ccccc1O [Tizoxanide] | 0.5
CCC[C@@H]1C[C@@H](C(=O)N[C@@H]([C@H]2O[C@H](SC)[C@H](O)[C@@H](O)[C@H]2O)[C@H](C)Cl)N(C)C1 | 0.125
Cc1ncc([N+](=O)[O-])n1CCO | 0.5

Exercise: Item CC(=O)Oc1ccccc1C(=O)Nc1ncc([N+](=O)[O-])s1 [Nitazoxanide] with anaerobic Gram positive cocci - MIC50?
Solution: 0.5
